B1: CPEB3 Ribozyme (parent)
chain: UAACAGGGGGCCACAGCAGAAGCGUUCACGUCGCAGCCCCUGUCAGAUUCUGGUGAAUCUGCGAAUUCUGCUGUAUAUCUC

Variants of: B1
Experiment: self-cleavage, relative activity (ratio to wild type); higher = more cleavage; in vitro, sequencing
Parameter: self-cleavage. Scope: all listed entries.

Worked examples follow.
>  <biosequence>
UAACAGGGGGCCACAGCAGAAGCGUUCACGUCGCAGCCCCUGUCAGGUUCUGGUGAAUCUGCGAAUUAUGCUGUAUAUCUC

>  <self-cleavage>
0.43

$$$$
>  <biosequence>
UAACAGGGGGCCACAGCAGAAGCGUUCACGUCGCAGCCCCUGUCAGAUUCUGGUGAAUAUGCGAAUUCUGCUGUAUAUCUC

>  <self-cleavage>
0.37

$$$$
>  <biosequence>
UAACAGGAGGCCACAGCAGAAGCGUUCACGUCGCAGCCCCUGUCAGGUUCUGGUGAAUCUGCGAAUUCUGCUGUAUAUCUC

>  <self-cleavage>
0.23

$$$$
>  <biosequence>
UAACAGGGGGCCACAGCAGAAGCGUUCACGUCGCAGCCCCUGUCUGACUCUGGUGAAUCUGCGAAUUCUGCUGUAUAUCUC

>  <self-cleavage>
0.34

$$$$
>  <biosequence>
UAACAGGGGGCCACAGCAGAAGCGUUCACGUCGCAGCCCCUGUCAGACUCUGGUGUAUCUGCGAAUUCUGCUGUAUAUCUC

>  <self-cleavage>
0.38

$$$$
>  <biosequence>
UUACAAGGGGCCACAGCAGAAGCGUUCACGUCGCAGCCCCUGUCAGAUUCUGGUGAAUCUGCGAAUUCUGCUGUAUAUCUC

>  <self-cleavage>
0.66

$$$$
>  <biosequence>
UAACAGAGGGCCACAGCAGAGGCGUUCACGUCGCAGCCCCUGUCAGAUUCUGGUGAAUCUGCGAAUUCUGCUGUAUAUCUC

>  <self-cleavage>
0.33

$$$$
>  <biosequence>
UAACAGGGGGCCACAGCAGAAGCGAUCACGUAGCAGCCCCUGUCAGAUUCUGGUGAAUCUGCGAAUUCUGCUGUAUAUCUC

>  <self-cleavage>
0.16

$$$$

Read the next record carefully.
self-cleavage lookup needed for `UAACAUGGGGCCACAGCAGACGCGUUCACGUCGCAGCCCCUGUCAGAUUCUGGUGAAUCUGCGAAUUCUGCUGUAUAUCUC` , thanks.
0.17
